- tested_target: chromodomain of CBX5 (human)
- Sequence (Q9UN86 18-75): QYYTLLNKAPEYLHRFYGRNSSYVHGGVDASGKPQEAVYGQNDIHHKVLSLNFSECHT
- procedure_text: AlphaScreen or HTRF
Side chains are listed from the residue outwards. * marks the point of attachment. pyrrolidinyl = lysine with its side-chain amine cyclized into a pyrrolidine ring; azepanyl = lysine epsilon-N closed into a 7-membered azepane ring; piperidinyl = lysine epsilon-N closed into a piperidine ring; dicyclobutyl = not defined here; diethyl = not defined here; Cyclopentyl = C1CCC(*)C1; cyclohexyl = C1CCC(*)CC1; Bz = O=C(c1ccccc1)*; iPr = CC(C)*
We begin with a simple list: items and their reported IC50.
endpoint: IC50

>>> recorded_value("Bz-GFALKS-OMe [compound 11]")
"> 60 µM"
>>> recorded_value("Bz-GFALK(iPr)S-OMe [compound 12]")
"> 60 µM"
>>> recorded_value("Bz-GFALK(tetramethylguanidino)S-OMe [compound 24]")
"> 60 µM"
>>> recorded_value("Bz-GFALK(cyclohexyl)S-OMe [compound 14]")
"> 60 µM"
>>> recorded_value("Bz-GFALK(piperidinyl)S-OMe [compound 20]")
"> 60 µM"
>>> recorded_value("Bz-GFALK(pyrrolidinyl)S-OMe [compound 19]")
"> 60 µM"
>>> recorded_value("Bz-GFALK(dicyclobutyl)S-OMe (reading uncertain) [compound 22]")
"> 60 µM"
>>> recorded_value("Bz-GFALK(norbornyl)S-OMe [compound 15]")
"> 60 µM"
>>> recorded_value("Bz-GFALK(Cyclopentyl)S-OMe [compound 13]")
"> 60 µM"
>>> recorded_value("Bz-GFALK(dimethyl)S-OMe [compound 17]")
"> 60 µM"
>>> recorded_value("Bz-GFALK(azepanyl)S-OMe [compound 21]")
"> 60 µM"
>>> recorded_value("Bz-GFALK([norbornyl-Ac])S-OMe [compound 23]")
"> 60 µM"
>>> recorded_value("Bz-GFALK(diethyl)S-OMe (reading uncertain) [compound 18]")
"> 60 µM"
>>> recorded_value("Bz-GFALK(adamantyl)S-OMe [compound 16]")
"> 60 µM"
